# credit: ChEMBL document CHEMBL4359849

# Tested on: Mycobacterium tuberculosis
# Experiment: Antimycobacterial activity against Mycobacterium tuberculosis H37Rv after 14 days in presence of middlebrook 7H9/CAS medium by broth microdilution method
# Assay type: functional
# Experimental setup: 336 h
Below, each of the compounds is paired with its reported MIC90 value.
# unit: µM | format: bare number

Smiles text: N#Cc1ccc2c(c1)nc(-c1ccccc1)n2CCCNc1ccnc2cc(Cl)ccc12
Measured metric: MIC90
Recorded value: 62.5
//
Smiles text: CO[C@H]1/C=C/O[C@@]2(C)Oc3c(C)c(O)c4c(O)c(c(/C=N/N5CCN(C)CC5)c(O)c4c3C2=O)NC(=O)/C(C)=C\C=C\[C@H](C)[C@H](O)[C@@H](C)[C@@H](O)[C@@H](C)[C@H](OC(C)=O)[C@@H]1C
Measured metric: MIC90
Recorded value: 0.018
//
Smiles text: Cc1ccc2c(c1)nc(-c1ccccc1)n2CCCNc1ccnc2cc(Cl)ccc12
Measured metric: MIC90
Recorded value: 31.2
//
Smiles text: FC(F)(F)c1ccc2c(c1)nc(-c1ccccc1)n2CCCNc1ccnc2cc(Cl)ccc12
Measured metric: MIC90
Recorded value: 15.6
//
Smiles text: CS(=O)(=O)c1ccc2c(c1)nc(-c1ccccc1)n2CCCNc1ccnc2cc(Cl)ccc12
Measured metric: MIC90
Recorded value: 125

Now look at this one.
**Query** Returns the measured MIC90 for the input compound. Input: `Clc1ccc2c(NCCCn3c(-c4ccccc4)nc4ccccc43)ccnc2c1`
**Result** 62.5
